System: HT29 colon
protocol: NCI tumour cell line growth inhibition, 48 h
The entries below are paired with their reported TGI.
metric-name: TGI

* O=C(/C=C/c1ccc(O)c(O)c1)NC(CO)C(=O)O (configuration not stated) | > 100 µM
* CCOc1ccc(NCC(=O)N2CC(=O)Nc3ccccc32)cc1 | > 100 µM
* COc1c(O)cc(/C=C/c2cc(O)cc3c2[C@@]2(C(=O)O3)c3c(O)cc(O)cc3OC2c2cccc(O)c2)cc1O (some centres not stated) | 81.8 µM
* O=C1C(NCCO)=C(N2CC2)C(=O)C(NCCO)=C1N1CC1 | > 81.8 µM
* CC1CCCc2c(-c3ccc(Cl)cc3)nc(N)c(C#N)c21 (configuration not stated) | > 100 µM
* CN(C)c1ccc(C(C#N)N2CCCN(C(C#N)c3ccc(N(C)C)cc3)C2c2ccc(N(C)C)cc2)cc1 (configuration not stated) | > 100 µM
* Cc1cccc(C(C)O)n1 (configuration not stated) | > 100 µM
* CN(C)c1cccc2[nH]c(-c3[nH]ncc3Nc3ccnc(N)n3)nc12 | 0.638 µM
* O=C(Nc1ccccc1Cl)c1cnc2ccc(C3CCNCC3)cn12 | 18.6 µM
* COc1ccc2c(c1)[nH]c(=O)c1c3cccnc3cn21 | 0.168 µM
* COc1ncnc2c(NC3OC(CO)C(O)C3O)ncnc12 (configuration not stated) | > 32 µM
* N#Cc1cnn2c1n[n+]([O-])c1ccc(Cl)cc12 | 21.7 µM
* O=C(CC(=O)Nc1ccc(Cl)cc1)NNCC(=O)Nc1nc(-c2ccccc2)cs1 | > 100 µM
* C[C@]12CC[C@H]3[C@@H](CC=C4C[C@@H](O)CC[C@@]43C)[C@@H]1C/C(=C\c1cccc(OCCN3CCOCC3)c1)[C@@H]2O | > 100 µM
* CCn1c(=O)c2c(=O)[nH][nH]c2c2ccccc21 | > 100 µM
* N#CCCc1nc2ccc(Br)cc2c(=O)n1-c1ccc(O)c([N+](=O)[O-])c1 | > 100 µM
* COC(=O)c1nc(-c2ccc(Cl)c(Cl)c2)nc2ccccc12 | > 100 µM
* C[N+](C)(C)CC1Cc2ccccc2C1=O (configuration not stated) | > 10 µM
* c1ccc(C2=NN(c3ccccc3)C3(S2)SC(c2ccccc2)(c2ccccc2)c2ccccc23)cc1 (configuration not stated) | > 100 µM
* COc1ccccc1NC(=O)CC(=O)n1nc(C)c(N=Nc2ccccc2F)c1C | > 100 µM
* FC(F)(F)c1ccc2c(c1)N(CCCN1CCN(C3CC3)CC1)c1ccccc1S2 | 13.8 µM
* O=C1/C(=C/c2cccc([N+](=O)[O-])c2)CCCc2ccccc21 | 24 µM
